Cited source: patent US7420001B2

Entries annotated with measured log10 IC50
- study_system: MMP-2 (Homo sapiens, UniProt P08253)
- Construct: purchased Oncogene Research Products (Calbiochem) PF023
- Sequence (P08253 110-660): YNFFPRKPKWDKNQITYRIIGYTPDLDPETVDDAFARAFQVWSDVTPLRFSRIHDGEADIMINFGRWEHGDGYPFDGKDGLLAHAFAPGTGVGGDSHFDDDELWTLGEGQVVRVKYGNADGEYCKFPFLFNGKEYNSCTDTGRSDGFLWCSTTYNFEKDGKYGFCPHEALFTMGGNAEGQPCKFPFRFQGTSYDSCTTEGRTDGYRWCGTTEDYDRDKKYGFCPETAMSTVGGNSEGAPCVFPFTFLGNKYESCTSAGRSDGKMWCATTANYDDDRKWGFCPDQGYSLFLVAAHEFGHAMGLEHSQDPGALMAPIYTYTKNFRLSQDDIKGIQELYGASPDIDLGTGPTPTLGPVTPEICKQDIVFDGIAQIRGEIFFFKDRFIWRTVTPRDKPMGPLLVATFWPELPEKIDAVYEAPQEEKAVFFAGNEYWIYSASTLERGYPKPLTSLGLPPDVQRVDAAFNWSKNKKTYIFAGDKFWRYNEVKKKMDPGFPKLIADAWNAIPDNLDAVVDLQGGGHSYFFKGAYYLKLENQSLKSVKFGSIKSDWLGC
- protocol_description: In-vitro fluorescence assay of MMP-2 activity
- Type: biochemical
- assay_conditions: recombinant human MMP-2; read-out: MMP-2 IC50
readout: log10 IC50 (log10 of the value in nM)

[
  {
    "compound": "NC(=O)C[C@H](NS(=O)(=O)c1ccc(-c2ccc(NC(=O)c3cc4ccccc4o3)cc2)cc1)C(=O)O",
    "log10 IC50": 1.00
  },
  {
    "compound": "Cc1c(C(=O)Nc2ccc(-c3ccc(S(=O)(=O)N[C@H](C(=O)O)C(C)C)cc3)cc2)oc2cccc(OCc3cccnc3)c12",
    "log10 IC50": 3.66
  },
  {
    "compound": "CC(C)[C@H](NS(=O)(=O)c1ccc(-c2ccc(NC(=O)c3cc4c(OCc5ccccc5)cccc4o3)cc2)cc1)C(=O)O",
    "log10 IC50": 1.79
  },
  {
    "compound": "Cc1c(C(=O)Nc2ccc(-c3ccc(S(=O)(=O)N[C@H](C(=O)O)C(C)C)cc3)cc2)oc2ccc(Br)cc12",
    "log10 IC50": 1.91
  },
  {
    "compound": "CC(C)[C@H](NS(=O)(=O)c1ccc(-c2ccc(NC(=O)c3nc4cc(C(F)(F)F)ccc4s3)cc2)cc1)C(=O)O",
    "log10 IC50": 2.17
  },
  {
    "compound": "Cc1c(C(=O)Nc2ccc(-c3ccc(S(=O)(=O)N[C@H](C(=O)O)C(C)C)cc3)cc2)oc2cccc(C3COC(C)(C)O3)c12 (stereo partly shown)",
    "log10 IC50": 3.35
  },
  {
    "compound": "CC(C)[C@H](NS(=O)(=O)c1ccc(-c2ccc(NC(=O)c3cc4c(ccc5ccccc54)o3)cc2)cc1)C(=O)O",
    "log10 IC50": 1.15
  },
  {
    "compound": "CC(C)[C@@H](NS(=O)(=O)c1ccc(-c2ccc(OCc3nc4ccccc4s3)cc2)cc1)C(=O)O",
    "log10 IC50": 1.38
  },
  {
    "compound": "CCOc1cccc2oc(C(=O)Nc3ccc(-c4ccc(S(=O)(=O)N[C@H](C(=O)O)C(C)C)cc4)cc3)c(C)c12",
    "log10 IC50": 3.56
  },
  {
    "compound": "Cc1c(C(=O)Nc2ccc(-c3ccc(S(=O)(=O)N[C@H](C(=O)O)C(C)C)cc3)cc2)oc2cccc(NS(=O)(=O)c3cccs3)c12",
    "log10 IC50": 3.60
  },
  {
    "compound": "Cc1c(C(=O)Nc2ccc(-c3ccc(S(=O)(=O)N[C@H](C(=O)O)C(C)C)cc3)cc2)oc2cccc(N(C)C)c12",
    "log10 IC50": 3.71
  },
  {
    "compound": "O=C(Nc1ccc(-c2ccc(S(=O)(=O)N[C@@H](Cc3cnc[nH]3)C(=O)O)cc2)cc1)c1cc2ccccc2o1",
    "log10 IC50": 1.57
  },
  {
    "compound": "CCn1c(C(=O)Nc2ccc(-c3ccc(S(=O)(=O)N[C@H](C(=O)O)C(C)C)cc3)nc2)nc2ccccc21",
    "log10 IC50": 3.42
  }
]
